Details: in acetonitrile, 278.15 K
Parameter measured: solubility (mole fraction)
Form field (numeric): enter value without unit.

Ask: Any idea what solubility (mole fraction) was measured for "Cc1cnc(C(=O)O)cn1" ?
Reply: 2.92e-06

---

Conditions: in isopropanol, 308.15 K
Parameter measured: solubility (mole fraction)

Ask: What value of solubility (mole fraction) has been reported for the following compound? "Cc1cnc(C(=O)O)cn1"
Reply: 2.03e-05

---

Conditions: in toluene, 278.15 K
Parameter measured: solubility (mole fraction)
Just the number.

Ask: Need solubility (mole fraction) of "Cc1cnc(C(=O)O)cn1" , thanks.
Reply: 1.1e-06

---

Settings: in acetonitrile, 283.15 K
Parameter measured: solubility (mole fraction)
Lab note: jot the number down without any unit.

Ask: Looking for the measured solubility (mole fraction) of "Cc1cnc(C(=O)O)cn1" , can you help?
Reply: 3.44e-06

---

Settings: in n-propanol, 298.15 K
Parameter measured: solubility (mole fraction)

Ask: What does the data say about its solubility (mole fraction)? Entry: "Cc1cnc(C(=O)O)cn1"
Reply: 2.07e-05

---

Settings: in toluene, 308.15 K
Parameter measured: solubility (mole fraction)
Keep the answer to the number alone.

Ask: solubility (mole fraction) lookup needed for "Cc1cnc(C(=O)O)cn1" , thanks.
Reply: 2.5e-06

---

Conditions: in water, 308.15 K
Parameter measured: solubility (mole fraction)
Give your answer as a number; write no unit.

Ask: For the compound "Cc1cnc(C(=O)O)cn1" , what solubility (mole fraction) is on record?
Reply: 8.83e-06

---

Conditions: in water, 278.15 K
Parameter measured: solubility (mole fraction)
Quick one: just the number, no unit, thanks!

Ask: # solubility (mole fraction) lookup, item "Cc1cnc(C(=O)O)cn1"
Reply: 3.83e-06

---

Details: in isopropanol, 303.15 K
Parameter measured: solubility (mole fraction)
Reply with just the number.

Ask: Quick check: solubility (mole fraction) of "Cc1cnc(C(=O)O)cn1" ?
Reply: 1.78e-05

---

Settings: in water, 283.15 K
Parameter measured: solubility (mole fraction)
Format: numeric value only, no unit, no commentary.

Ask: What value of solubility (mole fraction) has been recorded for this entry: "Cc1cnc(C(=O)O)cn1"
Reply: 4.46e-06

---

Details: in acetone, 313.15 K
Parameter measured: solubility (mole fraction)
Form rule: numeric answer, no unit written next to it.

Ask: # query: solubility (mole fraction) of entry "Cc1cnc(C(=O)O)cn1"
Reply: 2e-05

---

Conditions: in ethyl acetate, 283.15 K
Parameter measured: solubility (mole fraction)

Ask: I'd like to know its solubility (mole fraction). The molecule in question is "Cc1cnc(C(=O)O)cn1"
Reply: 5.82e-06

---

Details: in 2-butanone, 303.15 K
Parameter measured: solubility (mole fraction)
Answer with the value's number alone.

Ask: Sample "Cc1cnc(C(=O)O)cn1" — what was its solubility (mole fraction)?
Reply: 1.39e-05

---

Conditions: in acetone, 308.15 K
Parameter measured: solubility (mole fraction)
// return a plain number; no unit text

Ask: Entry "Cc1cnc(C(=O)O)cn1" has what solubility (mole fraction)?
Reply: 1.78e-05

---

Conditions: in 2-butanone, 298.15 K
Parameter measured: solubility (mole fraction)
Keep the answer to the number alone.

Ask: // returns reported solubility (mole fraction) for input "Cc1cnc(C(=O)O)cn1"
Reply: 1.21e-05

---

Conditions: in toluene, 303.15 K
Parameter measured: solubility (mole fraction)
Response field accepts a number only; no unit should be typed.

Ask: Reported solubility (mole fraction), compound "Cc1cnc(C(=O)O)cn1" : ____
Reply: 2.18e-06

---

Settings: in water, 293.15 K
Parameter measured: solubility (mole fraction)
Answer with a bare number; do not write a unit.

Ask: Which measured solubility (mole fraction) value corresponds to "Cc1cnc(C(=O)O)cn1" ?
Reply: 5.86e-06

---

Conditions: in methanol, 283.15 K
Parameter measured: solubility (mole fraction)
Output: the number by itself.

Ask: Query: solubility (mole fraction); subject: "Cc1cnc(C(=O)O)cn1"
Reply: 1.16e-05

---

Settings: in water, 273.15 K
Parameter measured: solubility (mole fraction)
Form rule: numeric answer, no unit written next to it.

Ask: # solubility (mole fraction) lookup, item "Cc1cnc(C(=O)O)cn1"
Reply: 3.32e-06

---

Conditions: in isopropanol, 313.15 K
Parameter measured: solubility (mole fraction)
Returns: the value as a bare number; no unit string appended.

Ask: Requested read-out: solubility (mole fraction). Entry: "Cc1cnc(C(=O)O)cn1"
Reply: 2.28e-05

---

Conditions: in ethanol, 273.15 K
Parameter measured: solubility (mole fraction)

Ask: Item "Cc1cnc(C(=O)O)cn1" has what recorded solubility (mole fraction)?
Reply: 1.09e-05

---

Details: in 1,4-dioxane, 308.15 K
Parameter measured: solubility (mole fraction)
Please give the numeric answer without any surrounding text.

Ask: Find the recorded solubility (mole fraction) belonging to "Cc1cnc(C(=O)O)cn1" and report it.
Reply: 3.29e-05

---

Conditions: in 2-butanone, 293.15 K
Parameter measured: solubility (mole fraction)

Ask: Given "Cc1cnc(C(=O)O)cn1" , state its recorded solubility (mole fraction).
Reply: 1.06e-05

---

Conditions: in n-propanol, 273.15 K
Parameter measured: solubility (mole fraction)
Reply with the value as a number alone.

Ask: Data request, read-out solubility (mole fraction), for "Cc1cnc(C(=O)O)cn1"
Reply: 1e-05

---

Conditions: in water, 298.15 K
Parameter measured: solubility (mole fraction)
Lab note: record just the number, no unit beside it.

Ask: Need solubility (mole fraction), item "Cc1cnc(C(=O)O)cn1"
Reply: 6.74e-06

---

Settings: in n-propanol, 283.15 K
Parameter measured: solubility (mole fraction)
Give your answer as a number; write no unit.

Ask: Fill blank: measured solubility (mole fraction) of the compound "Cc1cnc(C(=O)O)cn1" is ____.
Reply: 1.36e-05

---

Details: in ethyl acetate, 293.15 K
Parameter measured: solubility (mole fraction)

Ask: Given the entry "Cc1cnc(C(=O)O)cn1" , report its measured solubility (mole fraction).
Reply: 7.5e-06

---

Details: in acetonitrile, 273.15 K
Parameter measured: solubility (mole fraction)
Reply: number alone, nothing else.

Ask: solubility (mole fraction) lookup needed for "Cc1cnc(C(=O)O)cn1" , thanks.
Reply: 2.48e-06

---

Conditions: in 1,4-dioxane, 293.15 K
Parameter measured: solubility (mole fraction)
# respond with the number and nothing more

Ask: For the compound "Cc1cnc(C(=O)O)cn1" , what solubility (mole fraction) is on record?
Reply: 2.16e-05

---

Details: in 2-butanone, 288.15 K
Parameter measured: solubility (mole fraction)
Answer using only a numeral; do not append any unit.

Ask: Sample "Cc1cnc(C(=O)O)cn1" — what was its solubility (mole fraction)?
Reply: 9.3e-06

---

Details: in methanol, 308.15 K
Parameter measured: solubility (mole fraction)

Ask: Dear colleague, I am looking for the recorded solubility (mole fraction) of the following compound: "Cc1cnc(C(=O)O)cn1"
Reply: 2.29e-05

---

Conditions: in ethanol, 313.15 K
Parameter measured: solubility (mole fraction)
Reply with the value as a number alone.

Ask: What does the data say about its solubility (mole fraction)? Entry: "Cc1cnc(C(=O)O)cn1"
Reply: 3.33e-05

---

Details: in 1,4-dioxane, 303.15 K
Parameter measured: solubility (mole fraction)
Quick one: just the number, no unit, thanks!

Ask: # query: solubility (mole fraction) of entry "Cc1cnc(C(=O)O)cn1"
Reply: 2.84e-05

---

Settings: in toluene, 283.15 K
Parameter measured: solubility (mole fraction)
Please respond with just the number, no unit label.

Ask: Fill in: solubility (mole fraction) of "Cc1cnc(C(=O)O)cn1" is ___
Reply: 1.25e-06

---

Settings: in ethyl acetate, 273.15 K
Parameter measured: solubility (mole fraction)
No unit in the answer, please; the number alone is enough.

Ask: Bench note: what solubility (mole fraction) did "Cc1cnc(C(=O)O)cn1" show?
Reply: 4.31e-06

---

Conditions: in ethanol, 303.15 K
Parameter measured: solubility (mole fraction)

Ask: What solubility (mole fraction) value was documented for this compound, "Cc1cnc(C(=O)O)cn1" ?
Reply: 2.57e-05

---

Settings: in n-propanol, 313.15 K
Parameter measured: solubility (mole fraction)
// print number alone

Ask: // query solubility (mole fraction) value for entry "Cc1cnc(C(=O)O)cn1"
Reply: 3.06e-05

---

Conditions: in acetone, 303.15 K
Parameter measured: solubility (mole fraction)

Ask: solubility (mole fraction) lookup needed for "Cc1cnc(C(=O)O)cn1" , thanks.
Reply: 1.56e-05

---

Conditions: in toluene, 313.15 K
Parameter measured: solubility (mole fraction)
// response body must contain only the number

Ask: Requested field: solubility (mole fraction). Item: "Cc1cnc(C(=O)O)cn1"
Reply: 2.89e-06

---

Details: in methanol, 278.15 K
Parameter measured: solubility (mole fraction)

Ask: Consider the compound "Cc1cnc(C(=O)O)cn1" and give its measured solubility (mole fraction).
Reply: 1e-05
